Species on record: Rattus norvegicus
Test: DrugMatrix - Regimen: Daily Repeat
Assay type: toxicity, organism-based, Sprague-Dawley
Set-up: regimen Daily Repeat, gender Male, age 6-8 weeks
Conditions: in vivo, po, 0 mg/kg, 120 h, tissue Plasma, route oral GAVAGE, dose level Control, time 5 day, vehicle 100 % WATER
Examples of compounds with documented ALKALINE PHOSPHATASE follow.

COMPOUND | RESULT UNITS | ALKALINE PHOSPHATASE
NC(=O)c1cccnc1 [NIACINAMIDE] | u/L | 339.67
CNC1=Nc2ccc(Cl)cc2C(c2ccccc2)=[N+]([O-])C1 [CHLORDIAZEPOXIDE] | u/L | 380.17
CCN(C(C)=O)c1cccc(-c2ccnc3c(C#N)cnn23)c1 | u/L | 355.5
C#Cc1cccc(Nc2ncnc3cc(OCCOC)c(OCCOC)cc23)c1 | u/L | 417.83
CCN(CC)CCOC(=O)C1(C2CCCCC2)CCCCC1 | u/L | 393

* * *

Species: Rattus norvegicus
Assay: DrugMatrix - Regimen: Daily Repeat
Assay type: toxicity, organism-based, Sprague-Dawley
Parameters: regimen Daily Repeat, gender Male, age 6-8 weeks
Settings: in vivo, po, 0 mg/kg, 72 h, tissue Blood, route oral GAVAGE, dose level Control, time 3 day, […]
Could you please mark true (1) for values of LYMPHOCYTE below 90% and false (0) for values at or above it?

COMPOUND | ASSIGNED CATEGORY
Cc1ccc(C)c(OCCCC(C)(C)C(=O)O)c1 [GEMFIBROZIL] | true (1)
CCCCC(=O)N(Cc1ccc(-c2ccccc2-c2nnn[nH]2)cc1)[C@H](C(=O)O)C(C)C | false (0)
O=c1c(-c2ccc(O)cc2)coc2cc(O)cc(O)c12 [GENISTEIN] | false (0)
CC(C)c1c(C(=O)Nc2ccccc2)c(-c2ccccc2)c(-c2ccc(F)cc2)n1CC[C@@H](O)C[C@@H](O)CC(=O)O [ATORVASTATIN] | false (0)
CS(=O)(=O)Nc1ccc([N+](=O)[O-])cc1Oc1ccccc1 [NIMESULIDE] | true (1)

* * *

Each record here notes measured GLUCOSE.
Species: Rattus norvegicus
Experiment: DrugMatrix - Regimen: Daily Repeat
Format: toxicity, organism-based, Sprague-Dawley
Set-up: regimen Daily Repeat, gender Male, age 6-8 weeks
Settings: in vivo, po, 0 mg/kg, 72 h, tissue Plasma, route oral GAVAGE, dose level Control, time 3 day, […]

COMPOUND | GLUCOSE [mg/dL]
ClC(Cl)(Cl)Cl [CARBON TETRACHLORIDE] | 155.17
O=c1c(-c2ccc(O)cc2)coc2cc(O)cc(O)c12 | 170.5
c1ccoc1 | 169.5
CC(=O)Oc1ccccc1C(=O)O | 157.17
CCCCC(=O)N(Cc1ccc(-c2ccccc2-c2nnn[nH]2)cc1)[C@H](C(=O)O)C(C)C | 156.67
CC(C)c1c(C(=O)Nc2ccccc2)c(-c2ccccc2)c(-c2ccc(F)cc2)n1CC[C@@H](O)C[C@@H](O)CC(=O)O | 170.5
Cc1ccc(C)c(OCCCC(C)(C)C(=O)O)c1 | 163.83
CCc1ccc(CCOc2ccc(CC3SC(=O)NC3=O)cc2)nc1 (centres undefined) | 142.5
CS(=O)(=O)Nc1ccc([N+](=O)[O-])cc1Oc1ccccc1 [NIMESULIDE] | 164
